- Tested on: U2OS
- measurement.description: Multiplex assay against U2OS
- Assay type: toxicity, cell-based
- conditions.used: human, 24 h, 10 µM, compound concentration 10 uM, replicate 1
Each record gets a class by Population Mitotic Cells (%): range 1 (below 10%), range 2 (10% to below 20%), range 3 (20% or more)

COc1cc2nc(N3CCN(C(=O)c4ccco4)CC3)nc(N)c2cc1OC.Cl [PRAZOSIN HYDROCHLORIDE] = range 3
COc1ccc2c(c1OCc1ccccc1)C[C@@H](C(=O)O)N(C(=O)C(c1ccccc1)c1ccccc1)C2 [OLODANRIGAN] = range 2
Cl.Cl.OCCOCCN1CCN(C(c2ccccc2)c2ccc(Cl)cc2)CC1 (configuration not stated) [HYDROXYZINE HYDROCHLORIDE] = range 3
COC(c1ccccc1)(c1ccccc1)[C@H](Oc1nc(C)cc(C)n1)C(=O)O [AMBRISENTAN] = range 2
O=C(Nc1cc(-c2ccccc2)nn1-c1ccccc1F)c1ccc([N+](=O)[O-])cc1 = range 1

q: Which Population Mitotic Cells (%) category applies to CC(C)(C)c1ccc(CSc2cnn(C(C)(C)C)c(=O)c2Cl)cc1 [PYRIDABEN] here?
a: range 2

q: Please classify: CC(C)C[C@H](CO)Nc1nc(S[C@@H](C)c2ccccc2)nc2nc(N)sc12 [AZD-8797]
a: range 3

q: For Nc1nc(-c2ccco2)c2cnn(Cc3ccccc3F)c2n1 , which Population Mitotic Cells (%) bin applies?
a: range 2

###

- Tested on: U2OS
- measurement.description: Multiplex assay against U2OS
- Type: toxicity, cell-based
- conditions.used: human, 24 h, 10 µM, compound concentration 10 uM, replicate 1
experimental.endpoint: Population Mitochondria Different-Phenotype (%)
Number in %, nothing else.

Below are worked cases with known answers.
C[C@H](NC(=O)CNC(=O)c1cccc(Cl)c1)c1ccccc1 = 4
Cc1nn(C)c2nc(NNC(=O)Nc3cc(Cl)nc(Cl)c3)cc(C(C)C)c12 = 58
O=c1ccc2ccc(OCCCCN3CCN(c4cccc5sccc45)CC3)cc2[nH]1 [BREXPIPRAZOLE] = 67
Cc1cc(O)c(-c2ccc([C@@H](C)CN(C)C)cc2)c2c1[nH]c(=O)c1sccc12 = 70
CCCCC[C@H](O)/C=C/[C@H]1[C@H](O)CC(=O)[C@@H]1CCCCCCC(=O)O [ALPROSTADIL] = 0

q: Lab note: record Population Mitochondria Different-Phenotype (%) of CN1CCN(c2ccc(Nc3c4ccccc4nc4ccccc34)cc2)CC1.Cl.Cl.O tested on U2OS.
a: 96

q: Fetch value of Population Mitochondria Different-Phenotype (%) on U2OS for CN1C[C@H](C(=O)N[C@]2(C)O[C@@]3(O)[C@@H]4CCCN4C(=O)[C@H](Cc4ccccc4)N3C2=O)C[C@@H]2c3cccc4[nH]cc(c34)C[C@H]21.CS(=O)(=O)O [DIHYDROERGOTAMINE MESYLATE] .
a: 2

q: Under U2OS: report Population Mitochondria Different-Phenotype (%) of COCCCN1CCC(NC(=O)c2cc(Cl)c(N)c3c2OCC3)CC1 [PRUCALOPRIDE] .
a: 2

###

- Test system: HEK-293T
- measurement.description: Multiplex assay against HEK293T
- Format: toxicity, cell-based
- conditions.used: human, 12 h, 10 µM, compound concentration 10 uM, replicate 1
experimental.endpoint: Total Cell Count

COc1cc2nc(N3CCN(C(=O)c4ccco4)CC3)nc(N)c2cc1OC.Cl [PRAZOSIN HYDROCHLORIDE] = 348

q: Dear colleague, please send me the reported Total Cell Count for O=C(NCCNCC(O)COc1ccc(O)cc1)N1CCOCC1.O=C(NCCNCC(O)COc1ccc(O)cc1)N1CCOCC1.O=C(O)/C=C/C(=O)O (centres undefined) [XAMOTEROL FUMARATE] when you can.
a: 499

q: Read off the recorded Total Cell Count for Cl.Cl.OCCOCCN1CCN(C(c2ccccc2)c2ccc(Cl)cc2)CC1 (centres undefined) [HYDROXYZINE HYDROCHLORIDE]
a: 354

q: Give a short answer stating reported Total Cell Count for N[C@](CC1c2ccccc2Oc2ccccc21)(C(=O)O)[C@H]1C[C@@H]1C(=O)O .
a: 381

###

- Tested on: Fibroblast
- measurement.description: Multiplex assay against human fibroblast
- Type: toxicity, cell-based
- conditions.used: 12 h, 10 µM, compound concentration 10 uM, replicate 1
// label = YES if Population Apoptotic (%) is not less than 40%, otherwise NO

Completed entries (count: 7):
Cc1nn(C)c2nc(NNC(=O)Nc3cc(Cl)nc(Cl)c3)cc(C(C)C)c12 = YES
Cc1c(Cc2ccc3ccccc3n2)c2cc(F)ccc2n1CC(=O)O [TIMAPIPRANT] = YES
COc1cc(Nc2ncc3c(n2)-c2ccc(Cl)cc2C(c2c(F)cccc2OC)=NC3)ccc1C(=O)O [ALISERTIB] = YES
O=C(O)CCC/C=C\CC1C(O)CC(O)C1/C=C/C(O)COc1cccc(Cl)c1 (stereo not given) [CLOPROSTENOL] = NO
COC(c1ccccc1)(c1ccccc1)[C@H](Oc1nc(C)cc(C)n1)C(=O)O [AMBRISENTAN] = YES
O=c1nc2[nH]c3ccccc3nc-2c(=O)[nH]1 [ALLOXAZINE] = NO
CC(C)(C)c1ccc(CSc2cnn(C(C)(C)C)c(=O)c2Cl)cc1 [PYRIDABEN] = NO

q: Decide: is the reported value of Population Apoptotic (%) for CC(C)C[C@H](CO)Nc1nc(S[C@@H](C)c2ccccc2)nc2nc(N)sc12 [AZD-8797] equal to or greater than 40%?
a: NO

###

- Tested on: U2OS
- measurement.description: Multiplex assay against U2OS
- Format: toxicity, cell-based
- conditions.used: human, 12 h, 10 µM, compound concentration 10 uM, replicate 1
Known Population Healthy Nuclei (%) of a selection of molecules
Number only, in %; omit the unit.

Solved cases below.
O=c1nc2[nH]c3ccccc3nc-2c(=O)[nH]1 = 59
CCC(=O)OCC(=O)[C@@]1(OC(=O)CC)[C@@H](C)C[C@H]2[C@@H]3CCC4=CC(=O)C=C[C@]4(C)[C@@]3(Cl)[C@@H](O)C[C@@]21C [BECLOMETHASONE DIPROPIONATE] = 40
CN1CCN2c3ccccc3Cc3ccccc3C2C1.Cl (centres undefined) [MIANSERIN HYDROCHLORIDE] = 68

q: Look up and report measured Population Healthy Nuclei (%) for this entry: O=C(O)CCC/C=C\CC1C(O)CC(O)C1/C=C/C(O)COc1cccc(Cl)c1 (centres undefined)
a: 60

###

Reported Population Mitotic Cells (%) values follow for various molecules
- Tested on: Fibroblast
- measurement.description: Multiplex assay against human fibroblast
- Assay type: toxicity, cell-based
- conditions.used: 12 h, 1 µM, compound concentration 1 uM, replicate 1
Reply numerically in %, unit not repeated.

CN1C[C@H](C(=O)N[C@]2(C)O[C@@]3(O)[C@@H]4CCCN4C(=O)[C@H](Cc4ccccc4)N3C2=O)C[C@@H]2c3cccc4[nH]cc(c34)C[C@H]21.CS(=O)(=O)O [DIHYDROERGOTAMINE MESYLATE] = 75
O=C(NCCNCC(O)COc1ccc(O)cc1)N1CCOCC1.O=C(NCCNCC(O)COc1ccc(O)cc1)N1CCOCC1.O=C(O)/C=C/C(=O)O (centres undefined) [XAMOTEROL FUMARATE] = 36
COc1cc2nc(N3CCN(C(=O)COc4c(OC)cccc4C(C)C)CC3)nc(N)c2cc1OC.Cl.Cl = 50

# input for lookup
q: Report measured Population Mitotic Cells (%); entry is C[C@H](NC(=O)CNC(=O)c1cccc(Cl)c1)c1ccccc1
a: 50

###

- System: HEK-293T
- measurement.description: Multiplex assay against HEK293T
- Type: toxicity, cell-based
- conditions.used: human, 48 h, 10 µM, compound concentration 10 uM, replicate 2
experimental.endpoint: Population Pyknosed Nuclei (%)
Write the number in % without appending the unit.

CN(C)C/C=C/C(=O)Nc1ccc(C(=O)N2CCCC(Nc3ncc(Cl)c(-c4c[nH]c5ccccc45)n3)C2)cc1 (stereo unspecified) = 21
S=C(NCCCc1c[nH]cn1)NCCCN(Cc1ccc(Cl)c(Cl)c1)c1ccc(Br)cn1 = 55
COc1c(Nc2ccc(S(C)(=O)=O)nc2C)ncnc1OC1CCN(C(=O)OC(C)C)CC1 [ADP-597] = 12

q: Provide Population Pyknosed Nuclei (%) value for the following compound: COCCCN1CCC(NC(=O)c2cc(Cl)c(N)c3c2OCC3)CC1 [PRUCALOPRIDE]
a: 7

q: Tell us which Population Pyknosed Nuclei (%) value is on record for O=c1ccc2ccc(OCCCCN3CCN(c4cccc5sccc45)CC3)cc2[nH]1 [BREXPIPRAZOLE]
a: 34

q: Please list Population Pyknosed Nuclei (%) recorded for the compound N[C@](CC1c2ccccc2Oc2ccccc21)(C(=O)O)[C@H]1C[C@@H]1C(=O)O
a: 6
